tested on: pancreatic cancer (Panc-1) cell line; assay: Antiproliferative assay, Panc-1; type: cell-based; details: Homo sapiens, read-out: Antiproliferative Activity IC50 ± SEM, Panc-1
Exam item: assign Met to entries whose IC50 is below 40 nM and Not met to entries at or above 40 nM. Note that a value of exactly 40 nM receives Not met.

Please review the following examples before continuing.
compound: O=C(NCC(c1ccccc1)c1c(-c2ccccc2)[nH]c2ccccc12)c1[nH]c2ccc(Cl)cc2c1CO (centres unmarked) [Ve]
assigned-category: Not met
--
compound: C#Cc1cccc(Nc2ncnc3cc(OCCOC)c(OCCOC)cc23)c1 [Erlotinib, reference compound]
assigned-category: Met
--
compound: NCC(c1ccccc1)c1c(-c2ccccc2)[nH]c2ccccc12 (centres unmarked) [Compound IV]
assigned-category: Not met
--
compound: CCOCc1c(C(=O)NCC(c2ccccc2)c2c(-c3ccccc3)[nH]c3ccccc23)[nH]c2ccc(Cl)cc12 (centres unmarked) [Compound Vh]
assigned-category: Met

Note: attention shifts to another entry.
Is 40 nM strictly greater than the compound's reported IC50? compound: CCc1c(C(=O)NCC(c2ccccc2)c2c(-c3ccccc3)[nH]c3ccccc23)[nH]c2ccc(Br)cc12 (centres unmarked) [Vd] Not met
